Cited source for all entries: patent US20240092761A1

A collection of compounds and their measured IC50
TEST SYSTEM: CDK6/Cyclin D3 (Homo sapiens (Human), UniProt Q00534)
Sequence (Q00534 whole entry): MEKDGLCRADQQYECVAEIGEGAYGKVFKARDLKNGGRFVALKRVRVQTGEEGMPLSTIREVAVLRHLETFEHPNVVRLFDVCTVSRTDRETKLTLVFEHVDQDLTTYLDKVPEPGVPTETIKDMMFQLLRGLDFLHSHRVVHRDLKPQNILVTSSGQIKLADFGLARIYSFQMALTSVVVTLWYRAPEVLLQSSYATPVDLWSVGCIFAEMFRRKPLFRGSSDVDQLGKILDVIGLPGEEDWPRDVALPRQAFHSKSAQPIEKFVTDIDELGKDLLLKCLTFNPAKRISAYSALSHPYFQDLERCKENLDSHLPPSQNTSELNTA
Sequence (P30281 whole entry partner): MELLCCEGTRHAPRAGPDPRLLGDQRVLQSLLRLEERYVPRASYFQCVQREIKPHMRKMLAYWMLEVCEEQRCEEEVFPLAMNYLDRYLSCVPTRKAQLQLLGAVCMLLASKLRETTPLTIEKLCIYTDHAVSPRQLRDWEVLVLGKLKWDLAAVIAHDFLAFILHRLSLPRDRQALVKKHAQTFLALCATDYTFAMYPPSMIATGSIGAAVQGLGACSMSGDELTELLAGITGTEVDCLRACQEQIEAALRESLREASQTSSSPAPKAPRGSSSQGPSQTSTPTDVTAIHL
EXPERIMENT NOTES: CDK6/Cyclin D3 ADP-Glo Kinase Assay
Type: biochemical
EXPERIMENTAL PARAMETERS: 100 uM ATP, read-out: CDK6/ CyclinD3 IC50

Sample records with IC50:
>>> result("CS(=O)(=O)N1CCC(Nc2ncc3cccc(C4CC5(CCNC5)C4)c3n2)CC1 (stereo not shown)")
"< 200 nM"
>>> result("CN1CCc2cc(Nc3ncc4cc(C(F)F)cc(N5CC6(C5)CN(C5CC5)C6)c4n3)ccc2C1")
"< 200 nM"
>>> result("CN1Cc2ccc(Nc3ncc4cc(C(F)F)cc(N5CC6(CN(C)C6)C5)c4n3)cc2C1")
"< 200 nM"
>>> result("CCN(CC)C1CCN(c2cccc3cnc(NC4CCN(S(C)(=O)=O)CC4)nc23)CC1")
"500 to 2000 nM"

Given the entry CC(=O)N1CCC2(CCN(c3cc(C(F)F)cc4cnc(Nc5cnn(C(C)C)c5)nc34)C2)C1 (stereo not shown) , report its measured IC50.
500 to 2000 nM

Input CS(=O)(=O)N1CCC(Nc2ncc3cc(C(F)F)cc(N4CC5(CNCC5(F)F)C4)c3n2)CC1
< 200 nM

Input CS(=O)(=O)N1CCC(Nc2ncc3cccc(N4CC(CC#N)C4)c3n2)CC1
< 200 nM
